Biological target: Aminopeptidase N (Plasmodium falciparum FcB1/Columbia)
Sequence (O96935 whole entry): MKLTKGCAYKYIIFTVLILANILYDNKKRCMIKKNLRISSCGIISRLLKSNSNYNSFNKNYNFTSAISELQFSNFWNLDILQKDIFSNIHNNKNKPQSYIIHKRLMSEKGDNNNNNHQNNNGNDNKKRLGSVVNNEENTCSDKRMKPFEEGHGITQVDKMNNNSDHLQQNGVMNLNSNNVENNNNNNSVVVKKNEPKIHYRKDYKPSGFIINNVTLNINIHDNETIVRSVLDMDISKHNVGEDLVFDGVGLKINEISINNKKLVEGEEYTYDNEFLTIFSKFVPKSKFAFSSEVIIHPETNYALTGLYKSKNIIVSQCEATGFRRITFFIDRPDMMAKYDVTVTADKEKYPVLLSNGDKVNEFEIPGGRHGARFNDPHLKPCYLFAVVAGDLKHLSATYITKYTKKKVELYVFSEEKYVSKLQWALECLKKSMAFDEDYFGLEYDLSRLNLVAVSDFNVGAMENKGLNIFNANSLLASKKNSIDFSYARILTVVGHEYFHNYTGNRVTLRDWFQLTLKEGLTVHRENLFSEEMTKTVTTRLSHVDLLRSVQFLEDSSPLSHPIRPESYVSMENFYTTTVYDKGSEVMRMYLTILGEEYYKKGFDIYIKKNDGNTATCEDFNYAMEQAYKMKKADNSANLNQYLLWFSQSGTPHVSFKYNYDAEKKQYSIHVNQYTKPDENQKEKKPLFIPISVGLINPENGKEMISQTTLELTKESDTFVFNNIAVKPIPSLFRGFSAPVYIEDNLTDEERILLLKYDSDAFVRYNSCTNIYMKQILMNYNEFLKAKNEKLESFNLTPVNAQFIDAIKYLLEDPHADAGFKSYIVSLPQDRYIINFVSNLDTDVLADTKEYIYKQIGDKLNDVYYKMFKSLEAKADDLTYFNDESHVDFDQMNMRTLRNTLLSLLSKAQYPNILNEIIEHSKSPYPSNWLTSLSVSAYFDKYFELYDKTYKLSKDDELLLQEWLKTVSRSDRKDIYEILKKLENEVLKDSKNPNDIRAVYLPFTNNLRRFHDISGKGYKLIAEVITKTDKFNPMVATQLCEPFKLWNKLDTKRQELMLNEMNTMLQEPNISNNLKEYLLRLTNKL
Experiment: malaria alanyl aminopeptidase activity blockers – biochemical, fluorogenic H-Leu-NHMec substrate, 1536-well (AID 1445)
Design: species or system Plasmodium falciparum 3D7, 3D7
Calls of active or inactive are those of the source. How the calls were made is not given here.
quantity_measured: IC50

Examples from the recorded data:
- chemical_smiles: "CC1(C)CC(=O)c2c(oc3ccc(NS(=O)(=O)c4ccc(C(=O)O)cc4)cc23)C1"
  test_system: "Aminopeptidase N (Plasmodium falciparum FcB1/Columbia)"
  IC50: "26 µM (active)"
- chemical_smiles: "CCCN(CCC)C(=O)CSc1nc2c(sc(=S)n2-c2ccc(OCC)cc2)c(=O)[nH]1"
  test_system: "Aminopeptidase N (Plasmodium falciparum FcB1/Columbia)"
  IC50: "68.3 µM (active)"
- chemical_smiles: "CCOc1ccc(-n2c(=S)sc3c(O)nc(SCC(=O)N4CCC(C)CC4)nc32)cc1"
  test_system: "Aminopeptidase N (Plasmodium falciparum FcB1/Columbia)"
  IC50: "30 µM (active)"
- chemical_smiles: "CCN1C(=O)/C(=C\\c2ccc(-c3ccc([N+](=O)[O-])cc3OC)o2)S/C1=N\\c1cccc(C(=O)O)c1"
  test_system: "Aminopeptidase N (Plasmodium falciparum FcB1/Columbia)"
  IC50: "2.2 µM (active)"
- chemical_smiles: "Cc1ccc(-c2csc3ncnc(SCc4ccc(C(=O)O)cc4)c23)cc1"
  test_system: "Aminopeptidase N (Plasmodium falciparum FcB1/Columbia)"
  IC50: "44.6 µM (active)"
- chemical_smiles: "Cc1cc(C)c(S(=O)(=O)Nc2cc(SCC(=O)O)c(O)c3ccccc23)cc1C"
  test_system: "Aminopeptidase N (Plasmodium falciparum FcB1/Columbia)"
  IC50: "48.5 µM (active)"

Moving on to another molecule below.
Using known records, supply IC50 for COc1ccc(/C=C2\SC(=S)NC2=O)cc1OS(=O)(=O)c1ccc(NC(C)=O)cc1 29.8 µM (active)
